These data points were gathered from the supplement of paper PMC9170038.

apparent KD of MS2 coat protein for assorted sequences
# Test system: MS2 coat protein
# test summary: apparent KD of MS2 coat protein; higher = weaker reporter binding
# stated conditions: Eterna round: R107; input ligand: arginine 13.2 mM
Reply with just the number (in nM).

# count of solved cases: 2
primary sequence	reported endpoint	readout units	val
UGGCAGCACCUCAUGUGCUGCCAAGGUGAUACCAGCAUCGAAAGAUGCCCUUGGCAGCACCAACAUGAGGAUCACCCAUGUAAUA [(MT)''-(M)'-(T')-(Theo)-(Ms2)_Design1/22_7]	apparent KD of MS2 coat protein	nM	26.8
UACAUGAGGAUCACCCAUGUAUUGCCGGUACGAGGACCGGUACGGCCGCCACUCGGGACAUGAGGAUCACCCAUGUGCUGCUAUU [Same State Trypophan A GF 23]	apparent KD of MS2 coat protein	nM	28.7

Moving on to another sequence below.
Enquiry: Any idea what apparent KD of MS2 coat protein was measured for ACGUAGAAGUCGGCCGCCACUGAUUUCAUGUUCAACAUGAGGAUCACCCAUGUACCUUAUGUUAACAGGACCGGGACGUAUACGA [JR_SSTryptoB_Sub001] ?
Return: 228
